All figures here come from the supplement of paper PMC6757056.

B1: library; a variant is named by its letters at N, in order (parent)
chain: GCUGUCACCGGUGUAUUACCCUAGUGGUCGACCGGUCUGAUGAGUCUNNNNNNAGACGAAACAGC

Variants of: B1
experimental-details: normalized RNA/DNA level with ligand (relative to sTRSVctl = 100) (log10 (% of sTRSVctl)); ligand: hypoxanthine (xanthine aptamer); higher = less ribozyme self-cleavage, higher mRNA level
study-conditions: ligand concentration (+) RNA-Seq: 5 mM, HEK293T, reporter: mCherry (pCS4076), ligand present: yes
Below is a list of entries, each paired with its recorded normalized RNA/DNA level with ligand (log10) value.
Quick one: just the number, no unit, thanks!

Use these answered entries as a reference point.
[[record]]
variant_identifier = "CAAUCC"
assay_result = 1.97

[[record]]
variant_identifier = "GCCAUG"
assay_result = 1.87

[[record]]
variant_identifier = "UUUUAC"
assay_result = 1.93


For the next question, use this variant.
Looking up CUUUGG , I found its normalized RNA/DNA level with ligand (log10) recorded as 1.88
